B1: CDC34 (parent)
chain: GGYFKARLKFPIDYPYSPPAFRFL

Variants of: B1
Assay: protein stability index of a GFP-peptide fusion (GPS, HEK-293T) (PSI 1-6); higher = more stable;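 further: lentivirally expressed fusions sorted by FACS into six bins by GFP to DsRed ratio, PSI derived from sequencing read proportions per bin multiplied by bin number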
Conditions: c terminus: a fixed tail appended
Measurement Kind: protein stability index
Numbers only.

For each entry beneath this line, provide reported protein stability index.
1. F10E
2. G1N
3. R7E
4. R22M

1: 2.66; 2: 3.03; 3: 2.77; 4: 3

Below is a list of variants. For each, state its recorded protein stability index.
1. A20T
2. F10R
3. K9M
4. R22Y
5. D13E
6. K5F

2.95
2.94
1.82
2.7
1.97
3.5

# batch: return protein stability index for each of the 3 variants below
1. F4Y
2. A20I
3. A6W

1. 2.38
2. 3.02
3. 3.16

For each of the variants below, note its protein stability index.
1. P11M
2. F4N
3. A6Y
4. F23A
5. G1E
6. A6N
7. P18D
8. P19Y

[3.98, 2.72, 3.56, 2.82, 1.58, 3.51, 2.34, 4.32]

# lookup: protein stability index of `F21N` 1.88

Data provenance is the supplement of paper PMC10567573.
